Each item that follows carries a reported IC50.
Target Desc: P2Y12 receptor (Homo sapiens, UniProt Q9H244)
Sequence (Q9H244 whole entry): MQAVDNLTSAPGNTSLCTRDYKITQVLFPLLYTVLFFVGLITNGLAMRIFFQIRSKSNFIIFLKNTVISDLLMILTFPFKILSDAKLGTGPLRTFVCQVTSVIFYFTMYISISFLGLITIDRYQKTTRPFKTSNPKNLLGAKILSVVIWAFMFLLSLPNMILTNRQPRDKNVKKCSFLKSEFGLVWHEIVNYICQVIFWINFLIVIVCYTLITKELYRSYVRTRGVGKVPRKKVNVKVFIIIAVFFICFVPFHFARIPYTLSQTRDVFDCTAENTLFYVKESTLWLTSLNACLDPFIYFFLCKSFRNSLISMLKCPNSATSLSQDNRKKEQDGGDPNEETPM
Protocol: Functional inhibition of 2-Me-S-ADP induced P2Y12 signalling (35S-GTPγS, cell membranes)
Test Context: membranes from P2Y12 transfected CHO-cells, EC80 concentration of agonist 2-methyl-thio-adenosine diphosphate, 30° C. for 45 min

{"Sample Smiles": "Cc1nc(N2CC(C(=O)NS(=O)(=O)Cc3cccc(F)c3)C2)c(C#N)cc1C(=O)OC(C)C", "IC50 (nM)": 460}
{"Sample Smiles": "CCOC(=O)c1cc(C#N)c(N2CCC(C(=O)NS(=O)(=O)Cc3ccc(C(C)C)cc3)CC2)nc1C", "IC50 (nM)": 250}
